- ASSAY EXPLANATION: Oral bioavailability in dog
- Assay type: ADME, organism-based, Canis lupus familiaris
- TEST SETTINGS: in vivo
ASSAY ENDPOINT: bioavailability (%)
Give the number; % is assumed, so skip it.

Q) Quick one: bioavailability for `N[C@H]1CN(c2ncnc(N3CCC(F)(F)C3)n2)C[C@@H]1N1CC(F)(F)CCC1=O` ?
A) 150

---

- ASSAY EXPLANATION: Apparent permeability from apical to basolateral side of MDCK cells by RRCK assay
- Assay type: ADME, cell-based, Canis lupus familiaris
- TEST SETTINGS: dog
Hi! Just check whether Papp A→B is below 4 ×10⁻⁶ cm/s. Below gives YES, equal or above gives NO.

Q) is_below(Papp A→B, 4 ×10⁻⁶ cm/s) for `N[C@H]1CN(c2ncnc(N3CCC(F)(F)C3)n2)C[C@@H]1N1CCCCC1=O` ?
A) YES

Q) // next record `COc1ccc(-c2cc(N3C[C@H](N)[C@@H](N4CCCCC4=O)C3)ncn2)cn1`
A) YES

Q) // next record `N[C@H]1CN(c2ncnc(-c3ccccc3)n2)C[C@@H]1N1CCCCC1=O`
A) NO

Q) // next record `N[C@H]1CN(c2cc(N3CCC(F)(F)C3)ncn2)C[C@@H]1N1CCCCC1=O`
A) YES

Q) // next record `N[C@H]1CN(c2cc(N3CCC(F)(F)C3)ncn2)C[C@@H]1N1CC(F)(F)CCC1=O`
A) YES

Q) // next record `N[C@H]1CN(c2ncnc(N3CCC(F)(F)C3)n2)C[C@@H]1N1CC(F)(F)CCC1=O`
A) NO

---

- ASSAY SYSTEM: Dipeptidyl peptidase 4 (Homo sapiens, UniProt P27487)
- Sequence (P27487 whole entry): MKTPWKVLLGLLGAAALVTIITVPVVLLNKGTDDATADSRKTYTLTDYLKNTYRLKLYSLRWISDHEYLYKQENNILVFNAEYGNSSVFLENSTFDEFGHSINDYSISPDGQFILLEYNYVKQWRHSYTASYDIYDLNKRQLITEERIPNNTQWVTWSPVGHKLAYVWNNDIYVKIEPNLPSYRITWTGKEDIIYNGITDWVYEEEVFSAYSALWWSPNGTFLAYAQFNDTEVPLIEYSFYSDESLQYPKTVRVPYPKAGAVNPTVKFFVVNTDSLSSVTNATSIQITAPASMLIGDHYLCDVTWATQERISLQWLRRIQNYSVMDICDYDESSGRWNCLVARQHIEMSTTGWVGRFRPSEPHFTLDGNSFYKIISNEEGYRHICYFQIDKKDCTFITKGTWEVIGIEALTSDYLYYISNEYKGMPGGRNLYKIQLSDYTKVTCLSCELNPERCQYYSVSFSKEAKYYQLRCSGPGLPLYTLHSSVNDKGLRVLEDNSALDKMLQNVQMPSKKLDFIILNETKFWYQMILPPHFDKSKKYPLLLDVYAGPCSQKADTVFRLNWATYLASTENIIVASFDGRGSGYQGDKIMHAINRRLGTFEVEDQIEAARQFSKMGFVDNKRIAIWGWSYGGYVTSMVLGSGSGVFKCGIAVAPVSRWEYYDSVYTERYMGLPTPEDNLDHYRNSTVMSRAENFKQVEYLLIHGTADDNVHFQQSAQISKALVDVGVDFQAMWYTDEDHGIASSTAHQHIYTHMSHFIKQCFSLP
ASSAY ENDPOINT: pIC50
Field pIC50 (float): negative decimal logarithm of the concentration in molar.

Q) Quick one: pIC50 for `Cc1nc(N2C[C@H](N)[C@@H](N3CC(F)(F)CCC3=O)C2)cc(N2CCC(F)(F)C2)n1` ?
A) 7.89

---

- Tested on: Liver microsomes
- ASSAY EXPLANATION: Intrinsic clearance in human liver microsomes
- Type: ADME, Microsome
ASSAY ENDPOINT: clearance

Q) Quick one: clearance for `N[C@H]1CN(c2cc(-c3cc(F)c(F)cc3F)ncn2)C[C@@H]1N1CCCC1=O` ?
A) < 7 µL/min/mg

Q) // next record `N[C@H]1CN(c2cc(N3CCc4nocc4C3)ncn2)C[C@@H]1N1CCCCC1=O`
A) < 7.5 µL/min/mg

Q) // next record `N[C@H]1CN(c2cc(N3CCc4nocc4C3)ncn2)C[C@@H]1N1CCCC1=O`
A) < 7 µL/min/mg

Q) // next record `N[C@H]1CN(c2cc(-c3cc(F)c(F)cc3F)ncn2)C[C@@H]1N1CCCCC1=O`
A) < 7.2 µL/min/mg

---

- ASSAY EXPLANATION: Clearance in dog
- Type: ADME, organism-based, Canis lupus familiaris
- TEST SETTINGS: in vivo
ASSAY ENDPOINT: clearance (mL/min/kg)
Give the number; mL/min/kg is assumed, so skip it.

Q) Quick one: clearance for `N[C@H]1CN(c2ncnc(N3CCC(F)(F)C3)n2)C[C@@H]1N1CC(F)(F)CCC1=O` ?
A) 7.2

---

Provide the recorded Vd for the entries that follow.
- ASSAY EXPLANATION: Volume of distribution at steady state in rat at 1 mg/kg, iv
- Assay type: ADME, organism-based
- Parameters: dose 1 mg/kg, route intravenous
- TEST SETTINGS: in vivo, read-out: Vdss
Put down the number, then write its unit next to it.

Q) Quick one: Vd for `N[C@H]1CN(c2ncnc(N3CCC(F)(F)C3)n2)C[C@@H]1N1CCCCC1=O` ?
A) 4.7 L/kg

Q) // next record `N[C@H]1CN(c2cc(N3CCC(F)(F)C3)ncn2)C[C@@H]1N1CCCCC1=O`
A) 2.3 L/kg

Q) // next record `N[C@H]1CN(c2ncnc(N3CCC(F)(F)C3)n2)C[C@@H]1N1CC(F)(F)CCC1=O`
A) 8.4 L/kg

Q) // next record `N[C@H]1CN(c2cc(N3CCC(F)(F)C3)ncn2)C[C@@H]1N1CC(F)(F)CCC1=O`
A) 5.7 L/kg

---

- ASSAY EXPLANATION: Fraction unbound in human plasma
- Type: ADME, cell-free
ASSAY ENDPOINT: fraction unbound
Returns: the value as a bare number; no unit string appended.

Q) Quick one: fraction unbound for `N[C@H]1CN(c2ncnc(N3CCC(F)(F)C3)n2)C[C@@H]1N1CC(F)(F)CCC1=O` ?
A) 0.83

---

- ASSAY EXPLANATION: Clearance in rat plasma at 1 mg/kg, iv and 5 mg/kg, po
- Assay type: ADME, organism-based
ASSAY ENDPOINT: clearance
Put down the number, then write its unit next to it.

Q) Quick one: clearance for `N[C@H]1CN(c2ncnc(N3CCC(F)(F)C3)n2)C[C@@H]1N1CCCCC1=O` ?
A) 36.8 mL/min/kg

Q) // next record `N[C@H]1CN(c2cc(N3CCC(F)(F)C3)ncn2)C[C@@H]1N1CC(F)(F)CCC1=O`
A) 84 mL/min/kg

Q) // next record `N[C@H]1CN(c2ncnc(N3CCC(F)(F)C3)n2)C[C@@H]1N1CC(F)(F)CCC1=O`
A) 46 mL/min/kg

Q) // next record `N[C@H]1CN(c2cc(N3CCC(F)(F)C3)ncn2)C[C@@H]1N1CCCCC1=O`
A) 60.1 mL/min/kg

---

- Tested on: Liver microsomes
- ASSAY EXPLANATION: Intrinsic clearance in human liver microsomes
- Format: ADME, Microsome
ASSAY ENDPOINT: clearance (µL/min/mg)
Give the number; µL/min/mg is assumed, so skip it.

Q) Quick one: clearance for `N[C@H]1CN(c2cc(-c3cc(F)cc(F)c3F)ncn2)C[C@@H]1c1ccccc1` ?
A) 85

Q) // next record `N[C@H]1CN(c2cc(NC3CC3)ncn2)C[C@@H]1c1ccccc1`
A) 38

Q) // next record `N[C@H]1CN(c2cc(N3CCc4nocc4C3)ncn2)C[C@@H]1c1ccccc1`
A) 56

---

- ASSAY SYSTEM: Cytochrome P450 2C9 (Homo sapiens, UniProt P11712)
- Sequence (P11712 whole entry): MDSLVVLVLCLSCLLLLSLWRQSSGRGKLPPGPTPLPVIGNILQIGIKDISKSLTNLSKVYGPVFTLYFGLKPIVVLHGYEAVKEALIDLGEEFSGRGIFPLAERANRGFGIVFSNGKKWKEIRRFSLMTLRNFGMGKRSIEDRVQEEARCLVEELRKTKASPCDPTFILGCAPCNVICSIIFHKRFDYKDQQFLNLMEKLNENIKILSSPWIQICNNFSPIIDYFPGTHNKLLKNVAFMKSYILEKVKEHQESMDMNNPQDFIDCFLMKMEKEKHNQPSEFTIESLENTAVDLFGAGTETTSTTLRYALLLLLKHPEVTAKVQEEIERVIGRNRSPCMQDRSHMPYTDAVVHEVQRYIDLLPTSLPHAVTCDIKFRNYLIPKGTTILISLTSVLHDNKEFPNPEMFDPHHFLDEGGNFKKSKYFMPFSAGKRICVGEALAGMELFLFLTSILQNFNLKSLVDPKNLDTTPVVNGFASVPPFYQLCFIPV
ASSAY ENDPOINT: IC50

Q) Quick one: IC50 for `N[C@H]1CN(c2ncnc(N3CCC(F)(F)C3)n2)C[C@@H]1N1CC(F)(F)CCC1=O` ?
A) > 15 µM

---

- ASSAY EXPLANATION: Oral bioavailability in rat at 5 mg/kg
- Assay type: ADME, organism-based
- TEST SETTINGS: in vivo
Provide the recorded bioavailability for the entries that follow.
Give the number; % is assumed, so skip it.

Q) Quick one: bioavailability for `N[C@H]1CN(c2cc(N3CCC(F)(F)C3)ncn2)C[C@@H]1N1CCCCC1=O` ?
A) 21

Q) // next record `N[C@H]1CN(c2ncnc(N3CCC(F)(F)C3)n2)C[C@@H]1N1CC(F)(F)CCC1=O`
A) 90

Q) // next record `N[C@H]1CN(c2ncnc(N3CCC(F)(F)C3)n2)C[C@@H]1N1CCCCC1=O`
A) 52

Q) // next record `N[C@H]1CN(c2cc(N3CCC(F)(F)C3)ncn2)C[C@@H]1N1CC(F)(F)CCC1=O`
A) 50

---

- ASSAY EXPLANATION: Half life in dog
- Format: ADME, organism-based, Canis lupus familiaris
- TEST SETTINGS: in vivo
ASSAY ENDPOINT: half-life (h)
Give the number; h is assumed, so skip it.

Q) Quick one: half-life for `N[C@H]1CN(c2ncnc(N3CCC(F)(F)C3)n2)C[C@@H]1N1CC(F)(F)CCC1=O` ?
A) 5.9

---

- ASSAY EXPLANATION: Volume of distribution at steady state in dog
- Assay type: ADME, organism-based, Canis lupus familiaris
- TEST SETTINGS: in vivo, read-out: Vdss
ASSAY ENDPOINT: Vd (L/kg)
Give the number; L/kg is assumed, so skip it.

Q) Quick one: Vd for `N[C@H]1CN(c2ncnc(N3CCC(F)(F)C3)n2)C[C@@H]1N1CC(F)(F)CCC1=O` ?
A) 1.9

---

- ASSAY EXPLANATION: Half life in rat at 1 mg/kg, iv and 5 mg/kg, po
- Assay type: ADME, organism-based
- TEST SETTINGS: in vivo
ASSAY ENDPOINT: half-life (h)
Give the number; h is assumed, so skip it.

Q) Quick one: half-life for `N[C@H]1CN(c2ncnc(N3CCC(F)(F)C3)n2)C[C@@H]1N1CCCCC1=O` ?
A) 5

Q) // next record `N[C@H]1CN(c2cc(N3CCC(F)(F)C3)ncn2)C[C@@H]1N1CC(F)(F)CCC1=O`
A) 2.4

Q) // next record `N[C@H]1CN(c2ncnc(N3CCC(F)(F)C3)n2)C[C@@H]1N1CC(F)(F)CCC1=O`
A) 3.6

Q) // next record `N[C@H]1CN(c2cc(N3CCC(F)(F)C3)ncn2)C[C@@H]1N1CCCCC1=O`
A) 0.78
